All figures here come from the supplement of paper PMC11417369.

The following sequences are listed with their measured gcPBM binding intensity (ln) values.
System: PfAP2-I AP2 domain 3 (GST-tagged)
PROTOCOL TEXT: gcPBM binding intensity (ln(normalized median fluorescence intensity)); higher = stronger DNA binding
The full ranking holds about 25,000 sequences; the median of “ln(normalized median fluorescence intensity)” is about 7.9, and the highest 2% start at about 11. Many of the other results were omitted from the sample, so the highest values are more common in it than they were.
RESULT TYPE: gcPBM binding intensity (ln)

primary_sequence="TGTATGTTATATACAACACACAAAAAAAAACAAGTT [CACACA_site301]" assay_result=7.62
primary_sequence="AGGATATATAATTAAGTGCATTAATTCAAAATAAAA [GTGCAC_site9702]" assay_result=11.5
primary_sequence=ATTCTTAAAAAATAAGTGCAAAATAATTAAATAAAT assay_result=10.2
primary_sequence="TTTATTTTATCATTTGCACACGCACCCCCACATAAA [CACACA_site8007]" assay_result=10.4
primary_sequence="AATCACAACGAACACACACACAAAAAAAAAAAAAAA [CACACA_site6790]" assay_result=7.96
primary_sequence=TTTTATGCGCAATAAGTGCATTTAAAATATATATAT assay_result=11
primary_sequence="ATATATATATATATATGTACATACATACAATCATAT [XGTACX_site6410]" assay_result=9.38
primary_sequence="AATCATTTATTGATGGTGCAATATACCATCTAATGA [GTGCAC_site9440]" assay_result=11.4
primary_sequence="ATATTCCTACATACAACACACGACGTTCTCATAAGA [CACACA_site231]" assay_result=8.06
primary_sequence="TACTTTTTTTTTTTTTTTTTTTTTTTTTCCCTTTTT [CACACA_negctrl_site761]" assay_result=7.47
